PROTOCOL_DESCRIPTION: Antiproliferative activity against human Nc37 cells assessed as cell viability at 0.1 mM after 72 hrs by trypan blue dye based hemocytometer analysis relative to control
Parameters: species or system NC-37
MEASUREMENT_CONDITIONS: read-out: Activity
Measured viability at 72 h, 100 µM of individual entries
OBSERVATION_TYPE: viability at 72 h, 100 µM (%)

> print(dat)
                           given.smiles  result.value
 1        CC(C)CNC(=O)Nc1ncnc2[nH]ncc12            60
 2       CC(C)CCNC(=O)Nc1ncnc2[nH]ncc12            60
 3     CC(C)(C)CNC(=O)Nc1ncnc2[nH]ncc12            60
 4      CC(C)(C)NC(=O)Nc1ncnc2[nH]ncc12            60
 5         CCOCCNC(=O)Nc1ncnc2[nH]ncc12            80
 6         CC(C)NC(=O)Nc1ncnc2[nH]ncc12            30
 7     O=C(Nc1ccccc1F)Nc1ncnc2[nH]ncc12            90
 8  O=C(Nc1ccc(Cl)cc1)Nc1ncnc2[nH]ncc12            30
 9          CCCCNC(=O)Nc1ncnc2[nH]ncc12            80
10  O=C(NCCCCc1ccccc1)Nc1ncnc2[nH]ncc12            60
11             CC(C)CCNc1ncnc2[nH]ncc12             0
12                C=CCNc1ncnc2[nH]ncc12            60
13         CCCCCNC(=O)Nc1ncnc2[nH]ncc12             0
14                  CCNc1ncnc2[nH]ncc12            90
15      CCCCCCCCNC(=O)Nc1ncnc2[nH]ncc12             0
16  O=C(Nc1cccc(Cl)c1)Nc1ncnc2[nH]ncc12             0
17   O=C(NCCCc1ccccc1)Nc1ncnc2[nH]ncc12            30
